This collection of values is drawn from ChEMBL document CHEMBL1124076.

Catalogue of pIC50 readings, one per entry.
# Target Under Test: Adenosine receptor A1 (Rattus norvegicus)
# Sequence (P25099 whole entry): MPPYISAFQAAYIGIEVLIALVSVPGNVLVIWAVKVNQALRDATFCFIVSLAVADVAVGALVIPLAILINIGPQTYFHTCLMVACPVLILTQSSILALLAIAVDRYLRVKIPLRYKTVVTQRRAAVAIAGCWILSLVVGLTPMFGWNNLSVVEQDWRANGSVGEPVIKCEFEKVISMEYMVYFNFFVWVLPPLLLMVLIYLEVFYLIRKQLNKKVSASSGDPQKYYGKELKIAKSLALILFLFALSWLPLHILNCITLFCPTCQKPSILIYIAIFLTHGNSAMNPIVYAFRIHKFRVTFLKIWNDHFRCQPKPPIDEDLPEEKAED
# Assay Method Text: Binding affinity to adenosine A1 receptor of rat brain membranes with 1 M NaCl by inhibition of [125-I]-IIIa binding
API: returns pIC50 as number; meaning -log10 of concentration in mol/L.

Consider the following illustrative entries.
[
  {
    "Structure Smiles String": "CCCn1c(=O)n(Cc2ccc(N)cc2)c(=O)c2[nH]c(-c3ccc(OCC(=O)O)cc3)nc21",
    "pIC50": 8.28
  },
  {
    "Structure Smiles String": "CCCn1c(=O)c2nc(-c3ccc(OCC(=O)O)cc3)[nH]c2n(Cc2ccc(N)c(I)c2)c1=O",
    "pIC50": 8.52
  },
  {
    "Structure Smiles String": "CCCn1c(=O)c2nc(-c3ccc(OCC(=O)O)cc3)[nH]c2n(CCc2ccc(N)cc2)c1=O",
    "pIC50": 8.47
  }
]

Continue with the compound presented below.
Give the measured pIC50 of CCCn1c(=O)c2nc(-c3ccc(OCC(=O)O)cc3)[nH]c2n(Cc2ccc(N)cc2)c1=O .
8.47
